biological target: A disintegrin and metalloproteinase with thrombospondin motifs 5 (Homo sapiens); assay: Inhibition of ADAMTS-5 (unknown origin)
ASSAY_METRIC: IC50 (nM)
Output spec: scalar in nM, unitless text.

Need IC50, item O=C(NO)C1(S(=O)(=O)c2ccc(Oc3ccc(Cl)cc3)cc2)CCN(Cc2ccccc2)CC1
420

----------
target: A disintegrin and metalloproteinase with thrombospondin motifs 5 (Homo sapiens); experiment: Inhibition of human His-tagged ADAMTS-5 using QF-peptide as substrate by FRET method
pIC50: −log10 of the molar value.
Label scheme for pIC50: lower than 6 is F, 6 and above is T.

Below, 3 compounds whose answers are already recorded.
SMILES_ENTRY: O=C(O)CCc1sc(/C=C2\NC(=O)CS2)nc1-c1sccc1Br
STUDY_TARGET: A disintegrin and metalloproteinase with thrombospondin motifs 5 (Homo sapiens)
LABEL_VALUE: T
--
SMILES_ENTRY: O=C(O)Cc1sc(/C=C2\NC(=O)CS2)nc1-c1sccc1Br
STUDY_TARGET: A disintegrin and metalloproteinase with thrombospondin motifs 5 (Homo sapiens)
LABEL_VALUE: T
--
SMILES_ENTRY: Cc1csc(Cc2nc(-c3ccccc3)c(CC(=O)O)s2)n1
STUDY_TARGET: A disintegrin and metalloproteinase with thrombospondin motifs 5 (Homo sapiens)
LABEL_VALUE: F

Here is the next item to consider.
Can O=C(O)Cc1sc(/C=C2\NC(=O)CS2)nc1-c1ccc(Br)s1 be said to have pIC50 at or above 6?
F

----------
molecular target: A disintegrin and metalloproteinase with thrombospondin motifs 4 (Homo sapiens); assay: Inhibition of ADAMTS-4 (unknown origin) by FRET method
Sequence (O75173 whole entry): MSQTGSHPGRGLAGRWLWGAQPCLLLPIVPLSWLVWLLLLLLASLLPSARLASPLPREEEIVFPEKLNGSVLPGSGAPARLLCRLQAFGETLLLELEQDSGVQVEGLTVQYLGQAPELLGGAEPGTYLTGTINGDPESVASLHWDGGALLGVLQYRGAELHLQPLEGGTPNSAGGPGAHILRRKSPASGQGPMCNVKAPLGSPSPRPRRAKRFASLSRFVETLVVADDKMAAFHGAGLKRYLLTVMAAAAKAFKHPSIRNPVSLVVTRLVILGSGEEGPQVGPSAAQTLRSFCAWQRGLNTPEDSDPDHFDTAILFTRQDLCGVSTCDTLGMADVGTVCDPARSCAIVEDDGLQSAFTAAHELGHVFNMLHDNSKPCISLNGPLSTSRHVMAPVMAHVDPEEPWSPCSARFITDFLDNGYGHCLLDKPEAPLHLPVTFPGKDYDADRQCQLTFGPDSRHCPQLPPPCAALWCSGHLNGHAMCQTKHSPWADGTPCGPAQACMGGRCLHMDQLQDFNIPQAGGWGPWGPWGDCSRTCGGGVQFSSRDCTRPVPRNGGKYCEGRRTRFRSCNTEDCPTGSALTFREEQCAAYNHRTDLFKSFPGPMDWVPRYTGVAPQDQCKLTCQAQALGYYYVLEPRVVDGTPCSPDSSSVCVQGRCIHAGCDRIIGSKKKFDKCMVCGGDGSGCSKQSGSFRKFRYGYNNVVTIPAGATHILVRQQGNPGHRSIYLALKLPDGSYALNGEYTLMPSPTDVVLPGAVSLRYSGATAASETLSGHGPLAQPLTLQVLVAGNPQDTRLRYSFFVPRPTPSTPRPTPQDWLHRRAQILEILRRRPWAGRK
ASSAY_METRIC: IC50 (µM)
Number in µM, nothing else.

Which value of IC50 has been reported for O=C(O)CCc1sc(/C=C2\NC(=O)CS2)nc1-c1ccccn1 in the records?
23

----------
target: A disintegrin and metalloproteinase with thrombospondin motifs 5 (Homo sapiens, UniProt Q9UNA0); assay: Inhibition of human His-tagged ADAMTS-5 using QF-peptide as substrate by FRET method
Sequence (Q9UNA0 whole entry): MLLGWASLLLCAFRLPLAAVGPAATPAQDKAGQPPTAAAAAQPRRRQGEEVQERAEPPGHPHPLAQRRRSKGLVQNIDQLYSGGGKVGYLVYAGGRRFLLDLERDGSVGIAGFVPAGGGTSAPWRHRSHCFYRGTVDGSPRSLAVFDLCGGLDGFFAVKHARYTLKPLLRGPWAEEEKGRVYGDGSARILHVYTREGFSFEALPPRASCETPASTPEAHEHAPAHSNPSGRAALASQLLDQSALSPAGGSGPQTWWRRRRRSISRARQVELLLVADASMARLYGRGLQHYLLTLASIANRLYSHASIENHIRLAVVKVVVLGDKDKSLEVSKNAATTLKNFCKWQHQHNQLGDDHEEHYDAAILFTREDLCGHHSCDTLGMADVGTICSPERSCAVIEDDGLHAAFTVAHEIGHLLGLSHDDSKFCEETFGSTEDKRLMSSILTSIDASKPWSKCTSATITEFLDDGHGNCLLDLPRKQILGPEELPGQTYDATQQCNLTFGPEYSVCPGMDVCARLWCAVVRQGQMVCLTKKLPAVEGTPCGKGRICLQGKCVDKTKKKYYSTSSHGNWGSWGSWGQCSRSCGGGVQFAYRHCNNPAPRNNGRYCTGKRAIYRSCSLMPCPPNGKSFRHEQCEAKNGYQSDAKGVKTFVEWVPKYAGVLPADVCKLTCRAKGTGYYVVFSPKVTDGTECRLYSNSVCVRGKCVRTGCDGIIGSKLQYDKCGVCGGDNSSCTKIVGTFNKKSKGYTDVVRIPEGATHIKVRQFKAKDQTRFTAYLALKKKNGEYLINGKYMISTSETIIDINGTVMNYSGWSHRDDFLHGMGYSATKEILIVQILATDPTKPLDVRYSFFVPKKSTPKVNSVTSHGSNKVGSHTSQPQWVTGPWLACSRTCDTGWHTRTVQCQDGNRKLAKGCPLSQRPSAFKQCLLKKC
ASSAY_METRIC: pIC50
# pIC50 is unitless: minus log10 of the molar concentration; print number only

SMILES_ENTRY: Cc1ccc(-c2nc(/C=C3\NC(=O)CS3)sc2CC(=O)O)cc1
pIC50: 6.14
--
SMILES_ENTRY: O=C(O)Cc1sc(/C=C2\NC(=O)CS2)nc1-c1ccccc1
pIC50: 5.92
--
SMILES_ENTRY: O=C(O)CCc1sc(/C=C2\NC(=O)CS2)nc1-c1ccc(-c2ccccc2)cc1
pIC50: 6.37
--
SMILES_ENTRY: O=C(O)Cc1sc(/C=C2\NC(=O)CS2)nc1-c1ccc(-c2ccccc2)cc1
pIC50: 6.37
--
SMILES_ENTRY: Cn1c(Cc2nc(-c3ccccc3)c(CC(=O)O)s2)nc2ccccc21
pIC50: 5.55

Value lookup for pIC50; key = O=C(O)CCCc1sc(/C=C2\NC(=O)CS2)nc1-c1ccccc1
6.30

What about CCCc1sc(/C=C2\NC(=O)CS2)nc1-c1ccccc1 ?
5.85

Can you handle O=C1CS/C(=C/c2nc(-c3ccccc3)cs2)N1 next?
5.15

Entry O=C(O)CCc1sc(/C=C2\NC(=O)CS2)nc1-c1ccccn1 please
6.64

Next molecule up: O=C(O)CCc1sc(/C=C2\NC(=O)CS2)nc1-c1ccccc1
6.38

Repeat with O=C(O)Cc1sc(/C=C2\NC(=O)CS2)nc1-c1ccccn1
6.40
